TGT: T1, human CD36 (His-tagged) (human, UniProt P16671 30-439)
T1 construct: not shown: His tag
ASSAY METHOD TEXT: SPR (Biacore T200), His-captured CD36, bivalent analyte model
Consider the following binders and their measured kon readings.
The answer is to be given in M⁻¹ s⁻¹; state only the numeric part.

Example entries begin here.
| BINDER | kon (M⁻¹ s⁻¹) |
| --- | --- |
| 7G04 (antibody, human IgG1, V domains shown, Chimeric: mouse variable regions on human IgG1 LALA (L234A/L235A); also called 07G04; 007G04) VH: QVQMKESGAELVRPGASVKLSCKALGYTFTDYEIQWVKQTPVHGLEWIGGIHPGSSGIVYNQKFKGKATLTADKSSSTAYMELSSLTSEDSAVYYCTRGGGYDGAWFAYWGQGSLVTVSA VL: ETTVTQSPASLSMAIGEKVTIRCITSTDIDDDMNWYQQKPGEPPKLLISEGNTLRPGVPSRFSSSGYGTDFVFTIENMLSEDVADYYCLQSDNLPFTFGSGTKLEIK | 710000 |
| 11G04 (antibody, human IgG1, V domains shown, Chimeric: mouse variable regions on human IgG1 LALA (L234A/L235A); also called 011G04) VH: EVQLQQSGAELVRPGASVTLSCKASGYRFSDYEMQWVKQTPVHGLEWIGGIDPETGGIAYNQKFKVKATLTADKSSSTAFMELRSLTSEDSAVYYCTRKLDFDYWGQGTTLTVSS VL: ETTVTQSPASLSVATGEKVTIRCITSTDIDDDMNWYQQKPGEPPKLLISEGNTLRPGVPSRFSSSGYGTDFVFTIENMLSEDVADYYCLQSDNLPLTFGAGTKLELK | 1.2e+06 |

Exercise: Which kon value is on record for 14G04 (antibody, human IgG1, V domains shown, Chimeric: mouse variable regions on human IgG1 LALA (L234A/L235A); also called 014G04) VH: QVQLQQSGAELVRSGASVRLSCTASGFNIKDYYIHWVKQRPEQGLEWIGWIDPENGDTEYAPRFQDKATMTADTSSNTAYLQLSSLTSEDTAVYYCNGWLLSGNGMDYWGQGTSVTVSS VL: DIVMTQSHKFMSTSVGDRVSITCKASQDVGTAVAWYQQKPGQSPKLLIYWASTRHTGVPDRFTGSGSGTDFTLTISNVQSEDLADYFCQQYSSYPTFGGGTKLEIK ?
Key: 3.1e+06

Exercise: Which kon value is on record for 6G04 (antibody, human IgG1, V domains shown, Chimeric: mouse variable regions on human IgG1 LALA (L234A/L235A); also called 06G04; 006G04) VH: QVQLQQSGAELVMPGASVKMSCKASGYTFTDYWMHWVKQRPGQGLEWIGSIDTSDSYTTYSQKFKGKATLTVDESSSTAYMELARLTSEDSAIYYCVRGEDYEGTWFAYWGQGTLVTVSA VL: ETTVTQSPASLSVATGEKVTIRCITSTDIDDDMNWYQQKPGEPPKLLISEGNTLRPGVPSRFSSSGYGTDFVFTIENTLSEDVADYYCLQSDNMPLTFGAGTKLELK ?
Key: 390000
